- test method notes: shake flask on a mixture of 185; loss from the water phase only; LC-Orbitrap peak areas
- conditions: room
reported metric: log partition n-hexane / HPLC water, unbuffered, traces of methanol / DMSO (log10)

FC(F)C(F)(F)OCC(Cn1cncn1)c1ccc(Cl)cc1Cl (centres unmarked) = 0.4737
CC(C)C1(C)N=C(c2nc3ccccc3cc2C(=O)O)NC1=O (centres unmarked) = -1.375
O=C1C=CC(=O)N1c1ccc(Cc2ccc(N3C(=O)C=CC3=O)cc2)cc1 = -0.4156
CCOc1ccc2c(c1)C(C)CC(C)(C)N2 (centres unmarked) = 0.4617
O=P(OC(CCl)CCl)(OC(CCl)CCl)OC(CCl)CCl = 0.2465
CN/C(=N/[N+](=O)[O-])NCC1CCOC1 (centres unmarked) = -0.6643
Oc1c(Cl)ccc(Cl)c1Cl = -0.04129
N#CC(c1ccccc1)c1ccccc1 = -0.257
CCCOC(=O)c1ccc(C(=O)OCCC)nc1 = 1.051
CC(C)c1cccc(O)c1 = -0.5466
CCC(C)(CC)c1cc(NC(=O)c2c(OC)cccc2OC)on1 = 0.9138
CC(C)(C)c1ccc(O)c(O)c1 = -0.4698
CCCCNS(=O)(=O)c1ccccc1 = -0.2215
Nc1ccc(/N=N/c2ccccc2)cc1 = 1.192
CCCCc1ccc(O)cc1 = -0.849
Cn1cnc([N+](=O)[O-])c1Sc1ncnc2nc[nH]c12 = -1.636
CCCCCCCCCCCC(=O)OCC(O)CO (centres unmarked) = -1.755
CC(C)(C#N)Nc1nc(Cl)nc(NC2CC2)n1 = -0.13
COC(=O)c1sccc1S(N)(=O)=O = -1.408
Cc1cc(SCc2sc(-c3ccc(C(F)(F)F)c(F)c3)nc2C)ccc1OCC(=O)O = -1.28
C=CC(=O)OCC1CC2CC1C1CCC(COC(=O)C=C)C21 (centres unmarked) = -0.1023
CCc1nn(C)c(C(=O)NCc2ccc(C(C)(C)C)cc2)c1Cl = 0.5625
CCCCC(O)(Cn1cncn1)c1ccc(Cl)cc1Cl (centres unmarked) = 2.027
C=C(C)C(=O)OCCOCCOC(=O)C(=C)C = -0.1437
c1ccc2[nH]c(-c3cscn3)nc2c1 = -0.1668
CO/N=C(/C1=NOCCO1)c1ccccc1Oc1ncnc(Oc2ccccc2Cl)c1F = 1.053
Cc1ccc(N)c(S(=O)(=O)O)c1 = 0.1369
CCCCC(CC)C(=O)OCCOCCOCCOCCOC(=O)C(CC)CCCC (centres unmarked) = -1.802
CCCCNS(=O)(=O)c1ccc(C)cc1 = 0.2985
COc1ccccc1/C=C/C=O = 0.495
CCCC1COC(Cn2cncn2)(c2ccc(Cl)cc2Cl)O1 (centres unmarked) = 0.2474
CCCCC(CC)COC(=O)c1ccccc1C(=O)O (centres unmarked) = -1.06
CN(C)c1ccc(Cc2ccc(N(C)C)cc2)cc1 = -0.5531
O=C(O)c1ccccc1C(c1ccc(O)cc1)c1ccc(O)cc1 = -0.9598
c1ccc(CCCc2ccncc2)cc1 = -0.1192
O=C(OC1CCCCC1)c1ccccc1C(=O)OC1CCCCC1 = -0.6432
OCCN(CCO)c1ccccc1 = -1.209
CC(=O)CCc1ccc(OC(C)=O)cc1 = -1.074
Cc1oncc1C(=O)Nc1ccc(C(F)(F)F)cc1 = -0.1226
O=C1OC(=O)C2C3C=CC(C3)C12 (centres unmarked) = -0.7252
CCCCCCOc1cc(C)c(O)c(C)c1C = -0.4691
CCOc1ccc2[nH]cc(C(=O)NCc3ccccc3)c(=O)c2n1 = -1.633
Cc1cc2c3c(c1)C(c1ccccc1)=N[C@@H](NC(=O)c1ccncc1)C(=O)N3CC2 = -0.4559
CCCCNC(=S)NCCCC = -0.2041
CCCN(CCC)c1c([N+](=O)[O-])cc(C(C)C)cc1[N+](=O)[O-] = 0.4636
CCCCCCC(O)CCCCCCCCCCC(=O)OC (centres unmarked) = -1.341
CC(=O)Oc1ccc(C(C)=O)cc1 = -0.7051
O=C(O)CCN(C1(C(=O)NO)CCCC1)S(=O)(=O)c1ccc(Oc2ccc(F)cc2)cc1 = -1.472
O=C(Nc1ccccc1-c1ccc(Cl)cc1)c1cccnc1Cl = 1.664
CCCCOC(=O)C(C)Oc1ccc(Oc2ccc(C(F)(F)F)cn2)cc1 (centres unmarked) = -1.029

These measurements were taken from paper PMC10569036.
